Below: a set of entries, each annotated with reported growth.
- Test system: SK-OV-3 ovarian
- ASSAY OVERVIEW: NCI-60 one-dose screen, 48 h (100 = growth as untreated, 0 = no growth, -100 = all killed)
- RUN PARAMETERS: 10 µM unless noted
Compounds without any hit were thinned out: in the full panel of roughly 83,000, 20% have a hit.
Reply with just the number (in %).

Report measured growth; entry is CSc1nc(NCCO)c(C#N)c(-c2cccc([N+](=O)[O-])c2)n1
102

====

- Tested on: HOP-62 NSCLC
- ASSAY OVERVIEW: NCI-60 one-dose screen, 48 h
- RUN PARAMETERS: 10 µM unless noted
The panel holds about 83,000 compounds, 20% with a hit somewhere; the sample as a whole holds those more often. Activity calls are given as the source filed them. The calls were made as follows: active = growth percent below 10; inactive = the rest.
Choose one outcome from this list and give only that: yes (active), no (inactive)

Worked examples, 6 molecules total:
{"columns": ["MOLECULE", "ASSAY TARGET", "ASSIGNED CATEGORY"],
 "data": [
  ["NC(=NC1C2CC3CC(C2)CC1C3)Nc1ccc(I)cc1 (centres undefined)", "HOP-62 NSCLC", "no"],
  ["C#CC(F)(F)[C@]1(O)CC[C@H]2[C@@H]3CCC4=CC(=O)CCC4=C3[C@@H](c3ccc(C(C)=O)cc3)C[C@@]21C", "HOP-62 NSCLC", "no"],
  ["O=C(COc1ccc(/C=C2\\COc3ccccc3C2=O)cc1)Nc1nccs1", "HOP-62 NSCLC", "no"],
  ["CN(C)S(=O)(=O)c1cccc(-c2nc3sc4c(c3c(=O)[nH]2)CCCC4)c1", "HOP-62 NSCLC", "no"],
  ["COc1ccc2c(c1)C(=O)/C(=C/c1ccccn1)CC2", "HOP-62 NSCLC", "no"],
  ["COc1cc(C(=O)Oc2ccccc2OC(=O)c2cc(OC)c(OC)c(OC)c2)cc(OC)c1OC", "HOP-62 NSCLC", "no"]
]}

Given Clc1ccc2c(NCCCCNc3nc(N4CCCCC4)nc4ccccc34)ccnc2c1 , state the outcome it received in this test.
yes

Given C=CC(=O)Nc1cccc(-c2nc(SC)nc(NCCN3CCOCC3)c2C#N)c1 , state the outcome it received in this test.
no

Given O=C(/C=C/c1cccc([N+](=O)[O-])c1)c1ccc(O)c(CN2CCN(c3cc4c(cc3F)c(=O)c(C(=O)O)cn4C3CC3)CC2)c1 , state the outcome it received in this test.
no

====

- System: SK-MEL-5 melanoma
- ASSAY OVERVIEW: NCI-60 one-dose screen, 48 h (100 = growth as untreated, 0 = no growth, -100 = all killed)
- RUN PARAMETERS: 10 µM unless noted
The panel holds about 83,000 compounds, 20% with a hit somewhere; the sample as a whole holds those more often. Active and inactive are the calls of the source. The calls were made as follows: active = growth percent below 10; inactive = the rest.
Below: a set of entries, each annotated with reported growth.

{"columns": ["COMPOUND", "PROPERTY", "ENDPOINT RESULT"],
 "data": [
  ["N#CCCN=Nc1c(O)[nH]c2ccc(F)cc12", "growth", "99.5% (inactive)"]
]}

Would you please give the reported growth of c1ccc(-c2c(-c3ccccc3)[n+](Cc3ccc4ccccc4c3)c(-c3ccc(-c4nc5ccccc5s4)cc3)n2Cc2ccc3ccccc3c2)cc1 with SK-MEL-5 melanoma?
-98.3% (active)

Would you please give the reported growth of COc1ccc(C2CC(c3ccc(Cl)cc3)=NN2/C=C2\SC(=S)N(NC(=O)Cc3ccccc3Nc3c(Cl)cccc3Cl)C2=O)cc1 (stereo not given) with SK-MEL-5 melanoma?
81.9% (inactive)

Would you please give the reported growth of Cc1cc(N2CCOCC2)nc(NCc2cc(Nc3ccnc4cc(Cl)ccc34)ccc2F)n1 with SK-MEL-5 melanoma?
-98.3% (active)

Would you please give the reported growth of O=S(=O)(Nc1ccc(I)cc1F)c1ccc(-c2cnc(C3CC3)o2)cc1 with SK-MEL-5 melanoma?
62.8% (inactive)

====

- Test system: DU-145 prostate
- ASSAY OVERVIEW: NCI-60 one-dose screen, 48 h
- RUN PARAMETERS: 10 µM unless noted
- Method: Cells are grown in 96 well plates and exposed to the test compound for 48 hours. Compounds are tested at a single concentration, which is 10^-5 M for most compounds. The reported endpoint is percent growth (GI% or GIPRCNT), where numbers from 0 - 100% represent growth inhibition, and numbers from -100% - 0 represent cell death. For example, a value of 40 represents 60% growth inhibition. A value of 0 means no net growth occurred over the course of the experiment. […]
The panel holds about 83,000 compounds, 20% with a hit somewhere; the sample as a whole holds those more often. The source made the active and inactive calls. How the source made its calls: active means growth percent below 10; inactive means the rest.
Choose one outcome from this list and give only that: active, inactive

Worked examples, 8 molecules total:
{"columns": ["MOLECULE", "ASSIGNED CATEGORY"],
 "data": [
  ["COc1cc2c(cc1-c1c(C)noc1C)ncc1nc(C3CCCC3)n([C@H](C)COC(F)F)c12", "inactive"],
  ["COc1ccc(/C=C/c2nc3ccccc3nc2/C=C/c2ccc(OC)cc2)cc1", "inactive"],
  ["Clc1ccc2c(NCCNc3nc(N4CCCCC4)nc4ccccc34)ccnc2c1", "inactive"],
  ["OCC(O)c1nc2ccc3[nH]ncc3c2c2c1CCCC2 (stereo not given)", "inactive"],
  ["Cc1ccc2c(C(C[N+](=O)[O-])c3ccco3)c(-c3ccccc3)[nH]c2c1 (stereo not given)", "inactive"],
  ["O=C(COc1cccc(/C=C2\\COc3ccccc3C2=O)c1)Nc1nccs1", "inactive"],
  ["NC(=O)c1cc(I)ccc1NC(=O)/C=C/c1ccccc1Cl", "active"],
  ["CCCCn1c(-c2ccc(C(=O)O/N=C(\\N)c3ccc4ccccc4c3)cc2)nc(-c2ccccc2)c1-c1ccccc1", "inactive"]
]}

Given COc1ccc(C2CC(c3ccc(Cl)cc3)=NN2/C=C2\SC(=S)N(NC(=O)Cc3ccccc3Nc3c(Cl)cccc3Cl)C2=O)cc1 (stereo not given) , state the outcome it received in this test.
inactive

Given O=C(O)c1ccc(NC(=O)c2ccc(-c3cccc([N+](=O)[O-])c3)o2)cc1 , state the outcome it received in this test.
inactive

Given O=C1C=C(OCC=C(Cl)Cl)C(=O)c2ccccc21 , state the outcome it received in this test.
inactive

Given C=C(C)[C@@H]1CC[C@]2(C(N)=O)CC[C@]3(C)[C@H](CC[C@@H]4[C@@]5(C)C/C(=C/c6ccco6)C(=O)C(C)(C)[C@@H]5CC[C@]43C)[C@@H]12 , state the outcome it received in this test.
inactive

Given OC(c1cc2cc(Cl)c(Cl)cc2c2cc(C(F)(F)F)ccc12)C1CCCCN1 (stereo not given) , state the outcome it received in this test.
active

====

- Test system: MCF7 breast
- ASSAY OVERVIEW: NCI-60 one-dose screen, 48 h (100 = growth as untreated, 0 = no growth, -100 = all killed)
- RUN PARAMETERS: 10 µM unless noted
- Procedure: Growth inhibition of the MCF7 human tumor cell line is measured as a screen for anti-cancer activity. Cells are grown in 96 well plates and exposed to the test compound for 48 hours. Compounds are tested at a single concentration, which is 10^-5 M for most compounds. The reported endpoint is percent growth (GI% or GIPRCNT), where numbers from 0 - 100% represent growth inhibition, and numbers from -100% - 0 represent cell death. For example, a value of 40 represents 60% growth inhibition. […]
This is part of a sample that, as a whole, favours compounds with a hit. Of some 83,000 tested, about 20% had one in any assay.
// map growth to label using A: < 10%; B: ≥ 10% and < 70%; C: ≥ 70%

{"columns": ["COMPOUND", "ASSIGNED CATEGORY"],
 "data": [
  ["CC(=O)c1cc2c(N)c(C(=O)Nc3cccc4ccccc34)sc2nc1C", "B"],
  ["COc1ccc(-c2nn(-c3ccc(Cl)cc3)cc2-c2nc3ccccc3[nH]2)cc1", "C"],
  ["O=C(COc1cccc(/C=C2\\CSc3ccccc3C2=O)c1)Nc1nccs1", "A"]
]}

Which of the defined bands does the recorded growth of Nc1n[nH]c2ccc([C@@H]3Nc4cc5c(cc4[C@H]4C6CCC(C6)[C@@H]34)C(=O)NC5)cc12 (stereo not given in full) sit within?
B

Which of the defined bands does the recorded growth of c1csc(C2=NN3C(C2)c2ccccc2OC3c2ccncc2)c1 (stereo not given) sit within?
C

Which of the defined bands does the recorded growth of CN(C)c1ccc(N=Nc2ccc(Br)cn2)c(O)c1 sit within?
B

Which of the defined bands does the recorded growth of COc1cc(-c2nc(C(=O)NCC(=O)NO)nn2-c2ccc(Cl)cc2)cc(OC)c1OC sit within?
C

Which of the defined bands does the recorded growth of NC(=O)c1cc(Cl)ccc1NC(=O)/C=C/c1ccccc1 sit within?
B

Which of the defined bands does the recorded growth of O=c1cc(CSc2nnc(SCc3cc(=O)oc4c3ccc3ccccc34)o2)c2ccc3ccccc3c2o1 sit within?
C

Which of the defined bands does the recorded growth of CCCCC[C@H]1C/C=C2/C(=O)C=C[C@@H]2C/C=C\CCCC(=O)O1 sit within?
A
